# protocol.text: Ionisation constant for the compound
# Format: physicochemical
# settings: read-out: pKa
measured.property: pKa

                chemical_smiles  endpoint_value
0         Oc1cc(F)ccc1Oc1ccccc1            8.12
1            Oc1ccccc1Oc1ccccc1            9.12
2        Oc1cc(Cl)ccc1Oc1ccccc1            8.13
3  Oc1cc(Cl)ccc1Oc1ccc(Cl)cc1Cl             7.8
4       Cc1ccc(Oc2ccccc2)c(O)c1            9.15
